tested on: COLO 205; assay: NCI tumour cell line growth inhibition, 48 h
Activity calls are given as the source filed them. Cut-off read from the data, not from the text of the source: active = GI50 up to about 1.1 µM and inactive = higher.
The categories you may choose from are y = active, n = inactive

Identify the outcome logged in this assay for the molecule shown: `O=C1C(Cl)=C(Oc2ccc([N+](=O)[O-])cc2)C(=O)c2c(O)ccc(O)c21`
n

Look up the recorded call for S=c1sc2c(n1-c1ccccc1)N=CNC2S (configuration not stated) in this test.
n

Entry `COc1ccc(/C(Cl)=C(\C=O)c2cc(OC)c(OC)c(OC)c2)cc1OC` : call = ?
n

Answer briefly: the call reported for Cc1cn(C2CC(O)C(Cn3cc(Cn4nc(Br)c(=O)[nH]c4=O)nn3)O2)c(=O)[nH]c1=O (configuration not stated) in this assay.
n

GET /call?item= `COc1ccc2c(c1)[n+]([O-])c(C(N)=O)c(N)[n+]2[O-]` returns the recorded outcome of this test.
n

Query: recorded result category for CSCCC(NCc1c(O)ccc2c(-c3ccccc3)cc(=O)oc12)C(=O)O (configuration not stated) in this test
n

Tell me the recorded outcome of this test for `c1ccc2[nH]c3nc4ccccc4c-3cc2c1` .
y

Given CC(=O)C1COC(O)C1C (configuration not stated) , state the outcome it received in this test.
n

Any idea what this test logged for COc1ccc2c(c1)OCC1Cc3cccc(OC)c3OC21 (configuration not stated) ?
n

GET /call?item= CC(C)C(=O)OCC1CCCN2CCCCC12 (configuration not stated) returns the recorded outcome of this test.
n

Status in this test for `Cc1ccc(C[P+]2(c3ccccc3)CCCCC2)cc1.[O-][Cl+3]([O-])([O-])[O-]` ?
n

Dear all, I need the recorded test outcome for `O=C(O)CNC(=O)c1ccc(-c2ccccc2)cc1` , thank you.
n

----------
test system: UACC-62; test: NCI tumour cell line growth inhibition, 48 h
Calls of active or inactive are those of the source. Cut-off read from the data, not from the text of the source: active = GI50 up to about 1.1 µM and inactive = higher.
Respond with a class label; see 1 (active), -1 (inactive)

Could you check what this test reported for OCC1c2ccccc2-n2nc(-c3ccccc3)c(O)c21 (stereo unspecified) ?
-1

Test call, this molecule: Clc1ccc(C2SCc3nc4ccccc4n32)cc1 (stereo unspecified)
-1

// return assay outcome for CC(=O)NC1C(OCc2ccccc2)OC(CO)C(O)C1OCC(=O)N1CCCC1C(=O)NC(CCC(=O)NCCCCCNc1c2ccccc2nc2cccc([N+](=O)[O-])c12)C(N)=O (stereo unspecified)
1

Which outcome was assigned to `Cc1ccc(-n2cc(-c3ccc(Cl)cc3)c3c(NNC(=S)NCc4ccccc4)ncnc32)cc1` in this test?
-1

Hi, do you know how Oc1cc(O)c2c(c1)OC(c1ccc(O)c(O)c1)C(OC1(c3cc(O)c(O)c(O)c3)Oc3cc(O)cc(O)c3C(O)C1O)C2 (stereo unspecified) came out in this test?
-1

Short answer needed: outcome of this test for `COc1cc(C=O)cc(O)c1O` ?
-1

In this assay, the call recorded for `Cc1cc2ncc3c(=O)n(NS(=O)(=O)c4ccc(N)cc4)ccc3n2n1` was what?
-1

Recorded test call requested for COc1cc2c(cc1OC)C1C(=O)c3c(O)cc4c(c3OC1CO2)C=CC(C)(C)O4 (stereo unspecified)
-1

# outcome recorded in this test, key = O=C(CC1(O)C(=O)Nc2ccccc21)c1ccco1 (stereo unspecified)
-1

Short answer needed: outcome of this test for C=C(CC(NC(=O)c1ccc(C(CC)Cc2cnc3nc(N)nc(N)c3n2)cc1)C(=O)O)C(=O)O (stereo unspecified) ?
1

Field: outcome | Entry: `O=C(O)c1cccc(OCCO)c1`
-1

----------
tested on: TK-10; test: NCI tumour cell line growth inhibition, 48 h
Calls of active or inactive are those of the source. Rule as the data show it: active = GI50 up to about 1.1 µM and inactive = higher.
Assign a class; possible classes are active, inactive

GET /call?item= `c1ccc(Nc2nn3c(CCCCCCCCc4nnc5sc(Nc6ccccc6)nn45)nnc3s2)cc1` returns the recorded outcome of this test.
inactive

Please let me know the test result on file for COC(=O)C(C(=O)C(=O)Nc1ccc([N+](=O)[O-])cc1[N+](=O)[O-])c1nc2ccc(Cl)cc2nc1O (stereo not given) .
inactive

What did this assay record as the result for `N#Cc1c(-c2ccc([N+](=O)[O-])cc2)cc(-c2ccc(Nc3ccnc4cc(C(F)(F)F)ccc34)cc2)[nH]c1=O` ?
inactive

Returns: the outcome recorded for `O=C1COc2cc3c(cc2N1)SCCC(=O)N3` in this assay.
inactive

Could you please tell me the result logged for CC(=O)NC(CCCN(Cc1ccccc1)C(=O)N(C)N=O)C(=O)NCc1ccccc1 (stereo not given) in this assay?
inactive

Could you check what this test reported for CN(C)CCOC1(Cc2ccc(Cl)cc2Cl)CCC(C(C)(C)C)CC1 (stereo not given) ?
inactive

How was `C#C[C@]1(O)[C@@H](CO)O[C@@H](n2ccc(N)nc2=O)[C@@H]1O` classified in this test?
active

Per the assay record, what outcome was assigned to `CC(=O)Nc1nnc(S(=O)(=O)NC(=S)Nc2ccc(Cl)cc2)s1` ?
inactive

Answer briefly: the call reported for `COC(=O)[C@@H](O)[C@]1(C(=O)OC)C2O[C@@H](OC)[C@@H]1CCCCCC[C@H]2O` in this assay.
inactive

Record lookup: outcome of this test for `Cc1nc2c(=O)[nH]c(=O)nc-2n(CCO)c1C` ?
inactive

Tell me the assay call for `COC(=O)C1=C([C@H]2COC(C)(C)O2)[C@H]2C[C@@H]1[C@@H]1OC(C)(C)O[C@@H]12` please.
inactive

Tell me the assay call for `COc1ccc(C[C@H](N)C(=O)N2C[C@@H](CO)C[C@@H](n3cnc4c(N(C)C)ncnc43)C2)cc1` please.
inactive

How did this test come out for C=C(CC(NC(=O)c1ccc(C(CC)Cc2cnc3nc(N)nc(N)c3n2)cc1)C(=O)O)C(=O)O (stereo not given) ?
active

Outcome logged for `CC(=O)CC(=O)CCCC(=O)Nc1ccc(Cl)cc1C` in this assay:
inactive

Kindly provide the recorded test outcome for the following molecule: `CN(C)c1cccc(-c2cc(=S)c3cc4c(cc3[nH]2)OCO4)c1`
inactive

Test call for this molecule, please: `O=C1c2ccccc2C(=O)N1/N=C\c1ccc(Br)cc1`
inactive

Tell me the assay call for `CCN(CC)CCCNc1c2cc(OC)ccc2nc2cccc([N+](=O)[O-])c12` please.
active

Look up the recorded call for `COc1ccc(NC(=O)CC(=O)n2nc(-c3ccccc3)c(/N=N/c3ccccc3C(=O)O)c2-c2ccccc2)cc1` in this test.
inactive

Short answer needed: outcome of this test for O=C(NC(CS)C(=O)O)c1cccc2c(=O)c3ccccc3[nH]c12 (stereo not given) ?
inactive

Which outcome was entered for the molecule `[O-][n+]1onc2c3nn(-c4ccccc4)nc3ccc21` in this test?
inactive

Lab log entry: CCN(CC)CCCC(C)Nc1ccnc2cc(Cl)ccc12 (stereo not given) [CHLOROQUINE PHOSPHATE] — outcome as called in the assay?
inactive

Given O=C(CCN1CCCC1)CC(c1ccccc1)c1c(O)c2ccccc2oc1=O (stereo not given) , state the outcome it received in this test.
inactive

For this molecule, state the assay outcome: `COc1ccc(Br)c(CCCCC(=O)O)c1`
inactive

Outcome? `CSC1=C(SC)C(=O)c2cn(C)c(=O)cc2C1=O`
inactive

// param item: `CCc1cccc(C)c1NC(=O)CCc1nnc2s/c(=C\c3cccc4ccccc34)c(=O)n12` ; yields the recorded call
inactive

Please state the recorded outcome for this molecule: Cc1ccccc1SC(/C=C/NNC1=NN=C(c2ccccc2)C(c2ccccc2)N1)c1ccccc1 (stereo not given)
inactive

Record lookup: outcome of this test for `N#CN=C(NCc1ccccc1)NCc1ccccc1` ?
inactive

Returns: the outcome recorded for `O=C1Sc2ccc(Br)cc2C(=O)Sc2ccccc21` in this assay.
inactive

Please indicate how the test categorized `CN(C)/C=N/n1c2ccccc2c2ccccc21` .
inactive

What outcome does the record of this test show for COC(=O)C(Cc1c[nH]c2ccccc12)NC1=Nc2ccncc2S(=O)(=O)N1c1cccc(OC(C)C)c1 (stereo not given) ?
inactive

Please share the test call associated with `Clc1ccc(CSCCc2ccncc2)cc1Cl` .
inactive

How did this test come out for Oc1cc(O)c2c(c1)OC(c1ccc(O)c(O)c1)C(OC1(c3cc(O)c(O)c(O)c3)Oc3cc(O)cc(O)c3C(O)C1O)C2 (stereo not given) ?
inactive

I would be grateful if you could indicate the recorded call for `O=C(C=P(c1ccccc1)(c1ccccc1)c1ccccc1)C12CC3CC(CC(C3)C1)C2` .
inactive

Status in this test for NC(=O)NOCC1NC(=O)NC1=O (stereo not given) ?
inactive

Fill in: this test's call for Cc1cccc(C(C)(C)C)c1NC(=O)CC1Sc2ccccc2NC1=O (stereo not given) is ___
inactive

Name the outcome recorded for CC(C)(O)CCc1ccc(O)c2c(=O)c3c(O)c4c(cc3oc12)O[C@H]1OC=C[C@@]41O [AUSTOCYSTIN D] in the assay.
active

Per the records of this test, what outcome belongs to `CCCCCCCCCCC(=O)CC(=O)c1c(O)cccc1O` ?
inactive

Any idea what this test logged for CC(=O)Oc1c2c(c(O)c3ccccc13)C(n1cnc3c(ncn3C3OC(CO)C4OC(C)(C)OC43)c1=N)CCC2 (stereo not given) ?
inactive

Query: recorded result category for `COC(=O)[C@@H]1CN(C(C)=O)C(=O)N1C(=O)OCc1ccccc1` in this test
inactive

Status in this test for `COc1ccc(C(=O)O)c(Br)c1OCc1ccccc1` ?
inactive
